- Tested on: ACHN
- EXPERIMENT NOTES: NCI tumour cell line growth inhibition, 48 h
Active and inactive are the calls of the source. Rule as the data show it: active = GI50 up to about 1.1 µM and inactive = higher.
Classes to choose from: active, inactive

C=CCOCn1cnc2c(N)ncnc21
inactive
COC(=O)[C@H](C)NC(=O)[C@H](NS(=O)(=O)c1nc2ccccc2s1)c1ccccc1
inactive
CCCCCCCCCCCCCCC[C@@H](O)C[N+](C)(C)CCO
inactive
c1c[nH]c(C23C4C5C6C4C2C6C53)n1 (stereo unspecified)
inactive
COc1ccc2c(c1)C(=O)[C@@](Nc1ccc(C=O)cc1)(OC)[C@@](OC)(c1ccc([N+](=O)[O-])cc1)O2
inactive
CN(C)c1ccc(/C=N/c2ccc(-c3nc4ccccc4s3)cc2)cc1
inactive

query: Tell me the recorded outcome of this test for NCc1ccc(O)c(O)c1O .
result: inactive

query: Which outcome was entered for the compound O=C(c1ccccc1)N(C(=O)c1ccccc1)c1nc(SCc2ccccc2)ns1 in this test?
result: inactive

query: Given CC(C)Oc1c(-c2ccc(F)cc2)c(O)c2c3c1oc(=O)n3C=CC2C (stereo unspecified) , state the outcome it received in this test.
result: inactive

query: What did this assay record as the result for O=S(=O)(O)c1ccc2c(/N=N/c3ccc(/N=N/c4ccccc4)cc3)c(O)c(S(=O)(=O)O)cc2c1 ?
result: inactive

query: Could you check what this test reported for O=C(NCC#CCO)C(F)(F)F ?
result: inactive

query: Per the records of this test, what outcome belongs to O=C1C(Cl)=C(N2C(=O)CCC2=O)C(=O)c2ccccc21 ?
result: inactive

query: What is the recorded call for this compound in the test? COc1c2c(cc3c1C(=O)Cc1ccc4c(c1CN(C)CC3)OCO4)OCO2
result: inactive

###

- Tested on: NCI-H226
- EXPERIMENT NOTES: NCI tumour cell line growth inhibition, 48 h
Activity calls are given as the source filed them. Cut-off read from the data, not from the text of the source: active = GI50 up to about 1.1 µM and inactive = higher.
Bench note: report the call from active, inactive

The following compounds have reported results that may help.
CCC(C)CCOC(=O)c1ccc(/N=C\c2ccc(/C=N/c3ccc(C(=O)OCCC(C)CC)cc3)cc2)cc1 (stereo not given)
inactive
Cc1cc(N)c2cc(NC(=O)CCCCCCCCC(=O)Nc3ccc4nc(C)cc(N)c4c3)ccc2n1
inactive
O=C(CC12C3C4C1C1C2C3C41CC(=O)NO)NO (stereo not given)
inactive
CN(C)CCNC(=O)c1cccc2ccc(-c3ccc(-c4ccccc4)cc3)nc12
inactive
COc1ccc(C(OC(C)=O)C2C(=C(C#N)C#N)c3ccccc3C2=C(C#N)C#N)cc1 (stereo not given)
inactive
COC(=O)C1=C2SCc3ccc(cc3)CSC3=C(C(=O)OC)SC(=C(S2)S1)S3
inactive
Cc1ccc(C2NC(=O)c3ccccc3N2)c(C)c1 (stereo not given)
inactive
Nc1ccc2[nH]c(C(=O)N3CC(CCl)c4c3cc(N)c3ccccc43)cc2c1 (stereo not given)
active
COc1ccc(-c2c(=O)[nH]n3c(=S)[nH]c(-c4ccccc4)nc23)cc1OC
inactive

query: Per the records of this test, what outcome belongs to C/C(=N\c1ccc(Cl)c(Cl)c1)c1ccncc1 ?
result: inactive

###

- System: SF-295
- EXPERIMENT NOTES: NCI tumour cell line growth inhibition, 48 h
Calls of active or inactive are those of the source. No stated cut-off is given here; in the data, active = GI50 up to about 1.1 µM and inactive = higher. Where a SMILES comes first, the peptide text is derived from it. The star is where a group is joined. Fmoc = O=C(OCC1c2ccccc2-c2ccccc21)*; OBn = c1ccc(CO*)cc1; tBu = CC(C)(C)*
// values below are reported GI50

Examples with their reported GI50 follow.
Cc1cc2c(-c3ccccc3)cc(=O)[nH]c2cc1N
> 100 µM (inactive)
CC(=O)/C=C/c1ccc(C2CC(C)=Nc3c(ccc4c3C(=O)c3ccccc3C4=O)N2)cc1 (centres undefined)
> 100 µM (inactive)
COc1cc2c(cc1OC)-c1cc3ccccc3c(=O)n1CC2
15.3 µM (inactive)
CC1(C)CCCCCCCCCC(C)(CCCO)C1=O (centres undefined)
18.6 µM (inactive)
C=Cc1ccc(C)[n+](C[Si](C)(C)O[Si](C)(C)C[n+]2cc(C=C)ccc2C)c1
> 100 µM (inactive)
Nc1ncnc2c1ncn2[C@@H]1O[C@H](COP(=O)(O)OP(=O)(O)OC[C@H]2O[C@@H](OCCCO)[C@H](O)[C@@H]2O)[C@@H](O)[C@H]1O
> 100 µM (inactive)
CC(C)(C)C(=O)Nc1ccccc1Br
> 100 µM (inactive)
CC(OC(C)(C)C)C(NC(=O)OCC1c2ccccc2-c2ccccc21)C(=O)NC(Cc1ccccc1)C(=O)OCc1ccccc1 (centres undefined) (Fmoc-Thr(tBu)-Phe-OBn; configuration not given here)
> 100 µM (inactive)
CN(CCCNC(=O)c1cn(C)c2c1Cc1ccccc1-2)CCCNC(=O)c1cn(C)c2c1Cc1ccccc1-2
12.3 µM (inactive)
COC1=C(OC)C(=O)C(Cc2c(Cl)nc3n2CCS3)=C(C)C1=O
14.8 µM (inactive)

query: Give a short answer stating reported GI50 for CCN(CC)c1ccc(/N=C2/C=CC(=O)c3ncccc32)c(C)c1 .
result: 10.7 µM (inactive)

query: Please indicate GI50 recorded for CC12CCC(=O)N1c1ccc([N+](=O)[O-])cc1N2 (centres undefined)
result: > 100 µM (inactive)

query: Report measured GI50; entry is CCCN(CCC)c1c([N+](=O)[O-])cc(C(N)=O)cc1[N+](=O)[O-]
result: > 100 µM (inactive)

query: Indicate its recorded GI50; the compound in question is C[C@]12CC[C@H](O)CC1=CC[C@@H]1C2CC[C@]2(C)c3nn(-c4ccc(F)cc4)nc3CC12 (some centres undefined)
result: 34 µM (inactive)

query: Specify GI50 for CCOC(=O)CNC(=O)C(CSC(=O)N(O)c1ccc(Br)cc1)NC(=O)CCC(N)C(=O)OCC (centres undefined) and stop.
result: > 50 µM (inactive)

query: Read off the recorded GI50 for Cc1ccc(C)c(COCCOCn2ccc(N)nc2=O)c1
result: > 100 µM (inactive)

query: Give GI50 for the following compound: N#Cc1nc(/C=C/c2ccccc2)oc1N
result: > 100 µM (inactive)

query: Tell us which GI50 value is on record for CSc1nc(NC2OCC(OC(C)=O)C(OC(C)=O)C2OC(C)=O)c2c(OC(C)=O)c(C)c(=O)oc2n1 (centres undefined)
result: > 100 µM (inactive)

query: Read off the recorded GI50 for COc1cc2c(cc1OCCCC(=O)Nc1cc(C(=O)Nc3cc(C(=O)NCCCN(C)C)n(C)n3)n(C)n1)N=CC1CCCN1C2=O (centres undefined)
result: 36.1 µM (inactive)

query: Answer with the recorded GI50 of O=C(Nc1c(O)[nH]c(=S)[nH]c1=O)c1ccccc1 only.
result: > 100 µM (inactive)

query: Answer with reported GI50 of O=C(O)c1cc2sc(C(=O)O)cc2s1
result: > 100 µM (inactive)

###

- Test system: Malme-3M
- EXPERIMENT NOTES: NCI tumour cell line growth inhibition, 48 h
The source made the active and inactive calls. No stated cut-off is given here; in the data, active = GI50 up to about 1.1 µM and inactive = higher.
Please state which outcome applies, choosing from y (active), n (inactive)

query: Recorded call for CCOC1SC(SC)=NN1C(=O)C(OC(C)=O)C(OC(C)=O)C(OC(C)=O)C(OC(C)=O)C(=O)N1N=C(SC)SC1OCC (centres undefined) ?
result: n

###

Below is a list of entries, each paired with its recorded GI50 value.
- Test system: SF-539
- EXPERIMENT NOTES: NCI tumour cell line growth inhibition, 48 h
The source made the active and inactive calls. Rule as the data show it: active = GI50 up to about 1.1 µM and inactive = higher.

Observe how each entry below is paired with its result.
COc1ccc2c(c1)[n+]([O-])c(-c1ccc([N+](=O)[O-])cc1)c(N)[n+]2[O-]
> 100 µM (inactive)
O=C(c1cccs1)N(C(=O)N1CCC(c2ccccc2)CC1)c1ccccc1
> 100 µM (inactive)
COCc1nc2c(OC)c(-c3nc4ccc(N5CCN(C)CC5)nc4[nH]3)cc(OC)c2n1C
12.3 µM (inactive)

query: Tell me GI50 reported for CCC(c1ccc(OC)cc1)C1NC(=S)NC1=O (stereo not given)
result: > 50 µM (inactive)

query: Query GI50 for CCC(=O)O[C@H]1CC[C@H]2[C@@H]3CCC4=C/C(=N/OC(=O)c5cccc6c(=O)c7ccccc7[nH]c56)CC[C@]4(C)[C@H]3CC[C@]12C
result: 20.6 µM (inactive)

###

- System: 786-0
- EXPERIMENT NOTES: NCI tumour cell line growth inhibition, 48 h
Calls of active or inactive are those of the source. No stated cut-off is given here; in the data, active = GI50 up to about 1.1 µM and inactive = higher.
Select the correct class. Options are T for active, F for inactive and nothing else.

C=Cc1ccc(C)[n+](C[Si](C)(C)O[Si](C)(C)C[n+]2cc(C=C)ccc2C)c1
F
CC(=O)OCC(OC(C)=O)C(OC(C)=O)C(OC(C)=O)C(=O)CNn1c(-c2ccccc2Cl)nc2ccc(Br)cc2c1=O (stereo unspecified)
F
CCCCCCCCCCCCCCC[C@@H](O)C[N+](C)(C)CCO
T
Cc1cc(C)c2ccc(N3CCNCC3)nc2n1
F
O=C1/C(=C/c2cccc(Br)c2)CCc2ccccc21
F

# input for lookup
query: For O=c1[nH]c(N/N=C\C(O)C(O)C(O)CO)nc2ccccc12 (stereo unspecified) , what call appears in the results of this test?
result: F
